- test system: Nucleotide-binding oligomerization domain-containing protein 2 (Homo sapiens)
- Sequence (Q9HC29 whole entry, the tested form may be a part): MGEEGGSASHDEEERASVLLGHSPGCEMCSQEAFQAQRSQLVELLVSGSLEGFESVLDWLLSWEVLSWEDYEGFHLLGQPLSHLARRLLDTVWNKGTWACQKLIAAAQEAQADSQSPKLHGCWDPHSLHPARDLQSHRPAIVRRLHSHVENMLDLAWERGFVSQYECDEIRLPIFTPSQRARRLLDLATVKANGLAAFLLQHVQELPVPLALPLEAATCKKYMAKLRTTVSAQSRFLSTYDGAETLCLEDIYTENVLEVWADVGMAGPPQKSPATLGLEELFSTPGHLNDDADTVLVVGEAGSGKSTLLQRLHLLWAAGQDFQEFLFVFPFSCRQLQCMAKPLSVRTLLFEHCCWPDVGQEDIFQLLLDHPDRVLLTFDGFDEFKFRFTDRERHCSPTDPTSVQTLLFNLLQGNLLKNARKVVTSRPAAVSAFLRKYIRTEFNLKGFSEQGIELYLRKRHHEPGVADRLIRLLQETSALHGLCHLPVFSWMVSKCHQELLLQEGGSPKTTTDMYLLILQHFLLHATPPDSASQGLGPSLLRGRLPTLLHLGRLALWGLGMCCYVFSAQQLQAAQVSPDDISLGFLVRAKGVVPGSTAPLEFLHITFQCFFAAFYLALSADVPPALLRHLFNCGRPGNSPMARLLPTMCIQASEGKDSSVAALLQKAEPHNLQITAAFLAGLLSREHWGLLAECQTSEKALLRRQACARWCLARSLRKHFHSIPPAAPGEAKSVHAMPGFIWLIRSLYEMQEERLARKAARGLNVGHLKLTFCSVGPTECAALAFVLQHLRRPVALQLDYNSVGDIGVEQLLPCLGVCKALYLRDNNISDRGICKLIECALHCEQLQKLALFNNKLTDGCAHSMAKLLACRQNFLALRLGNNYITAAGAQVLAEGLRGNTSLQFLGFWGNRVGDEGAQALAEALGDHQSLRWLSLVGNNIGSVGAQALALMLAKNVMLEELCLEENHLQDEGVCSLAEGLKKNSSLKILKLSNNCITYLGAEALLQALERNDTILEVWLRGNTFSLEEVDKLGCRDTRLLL
- protocol: Antagonist activity at human NOD2 expressed in HEK293 cells assessed as reduction in MDP-induced NF-kappaB activation preincubated for 1 hr followed by MDP stimulation and measured after 18 hrs by SEAP reporter gene based spectrophotometric analysis
- Assay type: cell-based
- details: read-out: IC50
value type: pIC50
Note on pIC50: it is the negative log10 of concentration, concentration in mol/L.

Solved entries:
structure smiles	test result
O=C(Cn1c(CCCNC(=O)c2ccccc2)nc2ccccc21)Nc1ccc2c(c1)CCC2	5.24
O=C(Cc1ccncc1)NCCc1nc2ccccc2n1CC(=O)Nc1ccc2c(c1)CCC2	4.59
O=C(Cn1c(CCNCc2ccccc2)nc2ccccc21)Nc1ccc2c(c1)CCC2	5.32

Give the value of pIC50 reported for the following: "CN(C)c1cccc2c(S(=O)(=O)NCCc3nc4ccccc4n3CC(=O)Nc3ccc4c(c3)CCC4)cccc12"
5.21

Find the measured pIC50 of "O=C(Cn1c(CCCNS(=O)(=O)c2ccccc2)nc2ccccc21)Nc1ccc2c(c1)CCC2" and report it.
5.29

----------
log10 IC50 by entry:
- test system: Nucleotide-binding oligomerization domain-containing protein 1 (Homo sapiens, UniProt Q9Y239)
- Sequence (Q9Y239 whole entry): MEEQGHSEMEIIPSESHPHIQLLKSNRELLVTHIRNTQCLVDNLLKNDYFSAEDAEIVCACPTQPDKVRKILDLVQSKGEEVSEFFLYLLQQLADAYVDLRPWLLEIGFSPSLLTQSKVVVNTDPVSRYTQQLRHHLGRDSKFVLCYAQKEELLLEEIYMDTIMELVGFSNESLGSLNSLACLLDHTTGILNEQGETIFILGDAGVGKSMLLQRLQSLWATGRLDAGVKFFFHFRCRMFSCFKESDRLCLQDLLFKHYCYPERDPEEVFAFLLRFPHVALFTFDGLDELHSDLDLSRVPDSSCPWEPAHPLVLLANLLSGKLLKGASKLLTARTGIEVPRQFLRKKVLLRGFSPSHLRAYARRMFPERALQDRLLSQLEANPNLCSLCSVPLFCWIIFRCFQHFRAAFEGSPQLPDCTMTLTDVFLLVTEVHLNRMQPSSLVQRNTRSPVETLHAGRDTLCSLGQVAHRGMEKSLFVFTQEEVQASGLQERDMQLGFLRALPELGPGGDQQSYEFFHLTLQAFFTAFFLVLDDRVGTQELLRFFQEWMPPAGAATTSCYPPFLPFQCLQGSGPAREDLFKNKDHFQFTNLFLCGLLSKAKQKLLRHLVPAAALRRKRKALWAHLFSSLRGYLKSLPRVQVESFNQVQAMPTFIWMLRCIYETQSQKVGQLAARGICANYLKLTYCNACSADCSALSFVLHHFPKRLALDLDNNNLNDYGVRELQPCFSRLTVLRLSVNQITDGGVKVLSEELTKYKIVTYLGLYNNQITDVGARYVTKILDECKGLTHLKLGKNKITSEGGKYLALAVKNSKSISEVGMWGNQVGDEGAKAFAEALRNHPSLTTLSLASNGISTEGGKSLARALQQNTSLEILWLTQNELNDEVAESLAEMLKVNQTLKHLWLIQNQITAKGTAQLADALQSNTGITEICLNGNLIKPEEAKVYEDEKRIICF
- protocol: Antagonist activity at human NOD1 expressed in HEK293 cells assessed as reduction in C12-iE-DAP-induced NF-kappaB activation preincubated for 1 hr followed by C12-iE-DAP stimulation and measured after 18 hrs by SEAP reporter gene based spectrophotometric analysis
Kindly note that the scale is log10 and the underlying IC50 is in µM.

structure smiles	test result
CN(C)c1cccc2c(S(=O)(=O)N(C)CCc3nc4ccccc4n3CC(=O)Nc3ccc4c(c3)CCC4)cccc12	0.49

As a next step, examine the molecule that follows.
Please look at this molecule and report its log10 IC50: "O=C(Cc1ccncc1)NCCc1nc2ccccc2n1CC(=O)Nc1ccc2c(c1)CCC2"
1.63

Taken from ChEMBL document CHEMBL4765256.
